Biological target: human Bradykinin B1 receptor (Homo sapiens, UniProt P46663)
Assay: Calcium flux assay (FLIPR), CHO-K1 cells expressing human Bradykinin B1 receptor, absence of 0.1% BSA (hB1 free IC50)
Details: absence of 0.1% BSA in assay buffer
Description: The potency to inhibit the Bradykinin B1 receptor was determined for the Compound Examples of this invention in a cell-based fluorescent calcium-mobilisation assay. […] The change of the intracellular Ca^2+ concentration is monitored with a fluorescent plate reader FLIPR^TETRA® (Molecular Devices). […] The addition of agonist 20 μl per well to the assay plate is carried out on the FLIPR instrument while continuously monitoring Ca2+-dependent fluorescence at 538 nm. […] RFU means relative fluorescence units. […]
pIC50: −log10 of the molar value.
RESULT TYPE: pIC50

// known answers, use as guide
O=C(O)c1cc(NC(=O)C2(c3ccc(OC(F)(F)F)cc3F)CC2)ccc1-c1cnc(C2CCC2)s1 [Example 149]: 8.49
O=C(O)c1cc(NC(=O)C2(c3ccc(C(F)(F)F)cc3F)CC2)ccc1-c1cn(C2CCC2)nc1F [Example 45]: 7.26
Cc1ccc(C2(C(=O)Nc3ccc(-n4cc(C(C)(C)C)cn4)c(C(=O)O)c3)CC2)c(F)c1 [Example 14]: 6.00
O=C(O)c1cc(NC(=O)C2(c3ccc(OC(F)(F)F)cc3F)CC2)ccc1-c1cnn(CC2CCC2)c1 [Example 120]: 7.77

A = O=C(O)c1cc(NC(=O)C2(c3ccc(F)c(F)c3)CC2)cc(F)c1-c1cnn(C2CCC2)c1 [Example 38]
B = O=C(O)c1cc(NC(=O)C2(c3ccc(OC(F)(F)F)cc3F)CC2)cc(F)c1-c1ccc(C(F)F)nc1 [Example 95]
C = O=C(O)c1cc(NC(=O)C2(c3ccc(C(F)(F)F)cc3F)CC2)cc(F)c1-c1cnc(C2CCC2)s1 [Example 168]
Problem: Parameters: sort_field (pIC50), sort_dir (desc). Form entry: ranked labels (order as requested).
Solution: C, B, A

====

Target: native human Bradykinin B1 receptor (Homo sapiens)
Construct: which express native human Bradykinin B1 receptor after induction with human IL-1beta; Coriell Institute
Sequence (P46663 1-353): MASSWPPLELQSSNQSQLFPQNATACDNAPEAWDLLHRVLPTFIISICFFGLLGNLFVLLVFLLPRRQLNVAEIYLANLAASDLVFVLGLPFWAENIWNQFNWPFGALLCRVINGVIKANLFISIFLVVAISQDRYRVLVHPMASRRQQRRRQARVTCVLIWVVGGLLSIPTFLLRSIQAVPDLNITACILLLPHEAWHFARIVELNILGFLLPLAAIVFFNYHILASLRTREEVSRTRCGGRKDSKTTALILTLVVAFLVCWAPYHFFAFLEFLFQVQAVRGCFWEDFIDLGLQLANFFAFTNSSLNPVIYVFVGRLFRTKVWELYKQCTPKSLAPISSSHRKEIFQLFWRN
Assay: Calcium flux assay (FLIPR) with IMR-90 human fibroblasts expressing Bradykinin B1 receptor after IL-1beta induction (hB1 IMR-90)
Settings: IMR-90 human fibroblasts after IL-1beta induction, read-out: hB1 IMR90 IC50
RESULT TYPE: IC50 (nM)

I = CCC(F)(F)c1ccc(-c2ccc(NC(=O)C3(c4ccc(C)cc4F)CC3)cc2C(=O)O)cn1
II = O=C(O)c1cc(NC(=O)C2(c3ccc(OC(F)(F)F)cc3F)CC2)ccc1-c1ccc(C(F)F)nc1
Problem: Could you check which of I and II has a smaller value for IC50? Kindly state the label of the option you pick.
Solution: I
